- test system: human HSL (Homo sapiens)
- Construct: overlapping PCR to generate a full length human HSL ORF with a 3′-His6 tag; His6 (C)
- Sequence (Q05469 whole entry): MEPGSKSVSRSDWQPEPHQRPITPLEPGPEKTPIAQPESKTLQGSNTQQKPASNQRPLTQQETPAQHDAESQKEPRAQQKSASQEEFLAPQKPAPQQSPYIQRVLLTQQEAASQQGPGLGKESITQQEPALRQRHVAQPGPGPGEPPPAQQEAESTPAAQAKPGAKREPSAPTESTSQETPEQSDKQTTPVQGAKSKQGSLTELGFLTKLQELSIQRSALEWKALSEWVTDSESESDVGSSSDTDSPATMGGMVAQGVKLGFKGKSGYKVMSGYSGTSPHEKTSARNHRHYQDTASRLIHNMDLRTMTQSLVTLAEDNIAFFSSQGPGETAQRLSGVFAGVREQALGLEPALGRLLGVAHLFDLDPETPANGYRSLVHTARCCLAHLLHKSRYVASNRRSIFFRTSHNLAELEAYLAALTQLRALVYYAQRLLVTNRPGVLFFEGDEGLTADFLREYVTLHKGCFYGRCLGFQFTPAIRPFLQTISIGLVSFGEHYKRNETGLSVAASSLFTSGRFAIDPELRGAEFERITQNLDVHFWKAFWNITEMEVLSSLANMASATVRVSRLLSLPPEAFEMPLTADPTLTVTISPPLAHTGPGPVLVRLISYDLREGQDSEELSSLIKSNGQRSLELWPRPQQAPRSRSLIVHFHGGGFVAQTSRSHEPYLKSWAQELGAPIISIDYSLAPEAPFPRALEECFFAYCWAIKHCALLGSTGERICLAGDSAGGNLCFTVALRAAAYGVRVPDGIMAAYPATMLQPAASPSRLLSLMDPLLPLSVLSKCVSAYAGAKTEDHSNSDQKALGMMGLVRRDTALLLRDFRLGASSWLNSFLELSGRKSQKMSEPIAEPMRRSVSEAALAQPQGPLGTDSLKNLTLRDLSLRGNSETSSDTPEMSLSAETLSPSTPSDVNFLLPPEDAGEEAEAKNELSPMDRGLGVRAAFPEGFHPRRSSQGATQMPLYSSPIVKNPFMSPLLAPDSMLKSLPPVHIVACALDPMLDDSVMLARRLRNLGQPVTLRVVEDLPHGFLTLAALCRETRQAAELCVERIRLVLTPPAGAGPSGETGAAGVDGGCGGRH
- test method notes: Human Hormone-Sensitive Lipase (HSL) Enzyme Inhibition Assay
- condition: colorimetric assay, 2,3-dimercapto-1-propanol tributyrate (DMPT) substrate, 37° C. for 20 minutes, absorbance at 405 nm; read-out: HSL hum IC50
- Experimental: Production of Human Full Length Hormone Sensitive Lipase-His^6 1) Cloning: cDNA was prepared from commercial human brain polyA-+ RNA and used as a template in overlapping PCR to generate a full length human HSL ORF with a 3′-His6 tag. […] Cells were thawed. […] The protein concentration was calculated from absorbance at 280 nm, using 280=0.67 cm-1 mg-1. […] HSL enzyme activity was measured by a colorimetric assay using 2,3-dimercapto-1-propanol tributyrate (Aldrich, St. Louis, Mo.) as a substrate. […]
measurement name: pIC50
Please keep in mind that pIC50 is minus log10 of the molar concentration; only the number is needed.

*Q* Using known records, supply pIC50 for CCn1cc2cc(N3CCC4(CCN(S(=O)(=O)c5ccccc5Cl)CC4)C3=O)ccc2n1
*A* 7.22

*Q* Using known records, supply pIC50 for O=C1N(c2ccc(C(O)(C(F)(F)F)C(F)(F)F)cc2)CCC12CCN(S(=O)(=O)c1ccccc1Cl)CC2
*A* 7.40

*Q* Using known records, supply pIC50 for CC(C)CS(=O)(=O)N1CCC2(CCN(c3ccc(OCC(F)(F)F)cc3)C2=O)CC1
*A* 6.68

*Q* Using known records, supply pIC50 for Cc1noc(C)c1S(=O)(=O)N1CCC2(CCN(c3ccc(OC(C)C(F)(F)F)cc3)C2=O)CC1 (centres unmarked)
*A* 6.96

*Q* Using known records, supply pIC50 for O=C(COc1ccccc1)N1CCC2(CC1)CCN(c1ccc(OC(F)(F)F)cc1)C2=O
*A* 7.22

*Q* Using known records, supply pIC50 for CN(Cc1ccccc1)C(=O)N1CCC2(CC1)CCN(c1ccc(OC(F)(F)F)cc1)C2=O
*A* 6.92

*Q* Using known records, supply pIC50 for CC(C)CN(C)C(=O)N1CCC2(CC1)CCN(c1ccc(OC(F)(F)F)cc1)C2=O
*A* 7.15

*Q* Using known records, supply pIC50 for O=C1N(c2cnc(OCC(F)(F)F)nc2)CCC12CCN(S(=O)(=O)c1ccccc1)CC2
*A* 6.33

*Q* Using known records, supply pIC50 for CC(C)(C)c1ccc(CCN2CCC3(CCN(S(=O)(=O)c4ccccc4Cl)CC3)C2=O)cc1
*A* 7.00

*Q* Using known records, supply pIC50 for O=C1N(Cc2cccc(Cl)c2)CCC12CCN(S(=O)(=O)c1ccccc1Cl)CC2
*A* 6.40

*Q* Using known records, supply pIC50 for O=C1N(c2ccc(OC(F)(F)F)cc2)CCC12CCN(S(=O)(=O)c1ccc(F)cc1C(F)(F)F)CC2
*A* 6.72
